assay: Colistin plasma concentrations at steady state (HPLC); type: in vivo, patients; conditions: human, iv, 2 million IU/8 h, CMS 2 million IU/8 h (n = 42), steady state trough, median (interquartile range), read-out: Cmin
Bridge positions count the residues as written; N and C are the ends. Square brackets hold non-standard residues; d marks the D form. Peptide text beside a SMILES is read from it. * marks the point of attachment. X1 = CC[C@H](C)CCCCC(=O)*; Dab = NCC[C@H](N)C(=O)O
measured_quantity: level at 72 h (ng/mL)
Note: unit ng/mL is implicit; provide only the numeric part.

level at 72 h for CC[C@H](C)CCCCC(=O)N[C@@H](CCN)C(=O)N[C@H](C(=O)N[C@@H](CCN)C(=O)N[C@H]1CCNC(=O)[C@H]([C@@H](C)O)NC(=O)[C@H](CCN)NC(=O)[C@H](CCN)NC(=O)[C@H](CC(C)C)NC(=O)[C@@H](CC(C)C)NC(=O)[C@H](CCN)NC1=O)[C@@H](C)O [colistin] (X1-[Dab]T[Dab][Dab][Dab][dL]L[Dab][Dab]T; lactam 4-C) ?
1140

###

assay: Colistin plasma concentrations at steady state (HPLC); assay type: in vivo, patients; details: human, iv, CMS other doses (n = 16), steady state trough, median (interquartile range), read-out: Cmin
Bridge positions count the residues as written; N and C are the ends. Square brackets hold non-standard residues; d marks the D form. Peptide text beside a SMILES is read from it. * marks the point of attachment. X1 = CC[C@H](C)CCCCC(=O)*; Dab = NCC[C@H](N)C(=O)O
measured_quantity: level at 72 h (ng/mL)
Your answer is read as ng/mL, so omit the unit and give the number.

Which value of level at 72 h has been reported for CC[C@H](C)CCCCC(=O)N[C@@H](CCN)C(=O)N[C@H](C(=O)N[C@@H](CCN)C(=O)N[C@H]1CCNC(=O)[C@H]([C@@H](C)O)NC(=O)[C@H](CCN)NC(=O)[C@H](CCN)NC(=O)[C@H](CC(C)C)NC(=O)[C@@H](CC(C)C)NC(=O)[C@H](CCN)NC1=O)[C@@H](C)O [colistin] (X1-[Dab]T[Dab][Dab][Dab][dL]L[Dab][Dab]T; lactam 4-C) in the records?
1500

###

test: Colistin plasma concentrations at steady state (HPLC); type: in vivo, patients; conditions: human, iv, 3 million IU/8 h, CMS 3 million IU/8 h (n = 16), steady state trough, median (interquartile range), read-out: Cmin
Bridge positions count the residues as written; N and C are the ends. Square brackets hold non-standard residues; d marks the D form. Peptide text beside a SMILES is read from it. * marks the point of attachment. X1 = CC[C@H](C)CCCCC(=O)*; Dab = NCC[C@H](N)C(=O)O
measured_quantity: level at 72 h (ng/mL)
Numeric answer only, unit ng/mL assumed.

Consider the compound shown here: CC[C@H](C)CCCCC(=O)N[C@@H](CCN)C(=O)N[C@H](C(=O)N[C@@H](CCN)C(=O)N[C@H]1CCNC(=O)[C@H]([C@@H](C)O)NC(=O)[C@H](CCN)NC(=O)[C@H](CCN)NC(=O)[C@H](CC(C)C)NC(=O)[C@@H](CC(C)C)NC(=O)[C@H](CCN)NC1=O)[C@@H](C)O [colistin] (X1-[Dab]T[Dab][Dab][Dab][dL]L[Dab][Dab]T; lactam 4-C) What is its recorded level at 72 h?
1840

###

experiment: Colistin plasma concentrations at steady state (HPLC); format: in vivo, patients; settings: human, iv, second value of pair, taken as patients with acute renal failure at baseline, read-out: Trough colistin plasma level
Bridge positions count the residues as written; N and C are the ends. Square brackets hold non-standard residues; d marks the D form. Peptide text beside a SMILES is read from it. * marks the point of attachment. X1 = CC[C@H](C)CCCCC(=O)*; Dab = NCC[C@H](N)C(=O)O
measured_quantity: level at 72 h (ng/mL)
Reply numerically in ng/mL, unit not repeated.

I would be grateful if you could share the reported level at 72 h for CC[C@H](C)CCCCC(=O)N[C@@H](CCN)C(=O)N[C@H](C(=O)N[C@@H](CCN)C(=O)N[C@H]1CCNC(=O)[C@H]([C@@H](C)O)NC(=O)[C@H](CCN)NC(=O)[C@H](CCN)NC(=O)[C@H](CC(C)C)NC(=O)[C@@H](CC(C)C)NC(=O)[C@H](CCN)NC1=O)[C@@H](C)O [colistin] (X1-[Dab]T[Dab][Dab][Dab][dL]L[Dab][Dab]T; lactam 4-C) .
1790

###

Experiment: Colistin plasma concentrations at steady state (HPLC)
Assay type: in vivo, patients
Conditions: human, intravenous, CMS other doses (n = 16), steady state, 30 min after infusion, median (interquartile range), read-out: Cmax
Experimental: Evaluation of the colistin concentration in plasma was performed after 3 days of treatment, when the colistin concentrations had reached steady state. […] Colistin plasma trough concentrations (Cmin) were measured just before the next dose. […] Colistin concentrations in plasma were determined using a validated high-performance liquid chromatography (HPLC) method as described by Li et al., with minor modifications. […] The limit of quantification was 0.1 mcg/ml and the limit of detection was 0.05 mcg/mL.
Bridge positions count the residues as written; N and C are the ends. Square brackets hold non-standard residues; d marks the D form. Peptide text beside a SMILES is read from it. * marks the point of attachment. X1 = CC[C@H](C)CCCCC(=O)*; Dab = NCC[C@H](N)C(=O)O
measured_quantity: Cmax (ng/mL)
Just the number in ng/mL, nothing appended.

State the recorded Cmax for this entry: CC[C@H](C)CCCCC(=O)N[C@@H](CCN)C(=O)N[C@H](C(=O)N[C@@H](CCN)C(=O)N[C@H]1CCNC(=O)[C@H]([C@@H](C)O)NC(=O)[C@H](CCN)NC(=O)[C@H](CCN)NC(=O)[C@H](CC(C)C)NC(=O)[C@@H](CC(C)C)NC(=O)[C@H](CCN)NC1=O)[C@@H](C)O [colistin] (X1-[Dab]T[Dab][Dab][Dab][dL]L[Dab][Dab]T; lactam 4-C)
1500

Data origin, for the record: paper PMC3765824
